Tested on: HCV 1b-BB7 subgenomic replicon
Experiment: microbe, parasite or virus in culture
Format: cell-based, HCV genotype 1b
Conditions: Hepatitis C virus, stable replicon, strain 1b BB7, 5% FBS, no human plasma; read-out: 1b BB7 5% FBS EC50
Can you tell me pEC50 for the items I'm about to list?
One number for each entry, as −log10 of the molar value.

> print(dat)
                        structure.as.smiles  assay.endpoint  value
1  CS(=O)(=O)N(Cc1cnc(-c2cccc(CO)c2)s1)c1ccc2c(-c3ncc[nH]3)c(-c3ccccc3)oc2c1           pEC50   7.62

Provide the reported pEC50 of each entry below, same order.
1. CS(=O)(=O)Nc1cc2oc(-c3ccc(F)cc3)c(-c3nc(Cl)c(Cl)[nH]3)c2cc1C1CC1
2. CS(=O)(=O)N(CCCc1nnn[nH]1)c1cc2oc(-c3ccc(F)cc3)c(C3=NOCCN3)c2cc1C1CC1
3. CS(=O)(=O)N(CCCc1nsc(=O)[nH]1)c1cc2oc(-c3ccc(F)cc3)c(C3=NOCCN3)c2cc1C1CC1

[5.27, 6.00, 7.55]

###

Tested on: HCV 1a-H77 subgenomic replicon
Test: microbe, parasite or virus in culture
Type: cell-based, HCV genotype 1a
Settings: Hepatitis C virus, stable replicon, strain 1a H77, 5% FBS; read-out: 1a H77 5% FBS EC50
EC50 less than 90 nM is Fulfilled; EC50 greater than or equal to 90 nM is Not fulfilled.

Field: example entries. Status: answers known.
> print(dat)
                                   compound                 subject.of.test  assigned.label
1  CS(=O)(=O)N(Cc1cnc(-c2ccc3nc[nH]c3c2)s1)c1ccc2c(-c3ncc[nH]3)c(-c3ccccc3)oc2c1  HCV 1a-H77 subgenomic replicon       Fulfilled
2  CS(=O)(=O)N(CCC1CCCCC1)c1cc2oc(-c3ccc(F)cc3)c(-c3ncc[nH]3)c2cc1C1CC1  HCV 1a-H77 subgenomic replicon       Fulfilled

Strictly below 90 nM in EC50? CC(C)(O)CCCN(c1cc2oc(-c3ccc(F)cc3)c(-c3ncc[nH]3)c2cc1C1CC1)S(C)(=O)=O
Fulfilled

Strictly below 90 nM in EC50? CS(=O)(=O)N(CCCc1cc(O)no1)c1cc2oc(-c3ccc(F)cc3)c(-c3ncc[nH]3)c2cc1C1CC1
Fulfilled

Strictly below 90 nM in EC50? CS(=O)(=O)N(Cc1cnc(-c2cccc(CO)c2)s1)c1ccc2c(-c3ncc[nH]3)c(-c3ccccc3)oc2c1
Not fulfilled

Strictly below 90 nM in EC50? CN(C)C(=O)CCCN(c1cc2oc(-c3ccc(F)cc3)c(-c3ncc[nH]3)c2cc1C1CC1)S(C)(=O)=O
Fulfilled

Strictly below 90 nM in EC50? CS(=O)(=O)N(CCCCCO)c1cc2oc(-c3ccc(F)cc3)c(-c3ncc[nH]3)c2cc1C1CC1
Fulfilled

Strictly below 90 nM in EC50? COc1ccc(CN(c2cc3oc(-c4ccc(F)cc4)c(C4=NOC(C)N4)c3cc2C2CC2)S(C)(=O)=O)cc1 (stereo not drawn)
Not fulfilled

Strictly below 90 nM in EC50? CS(=O)(=O)N(CCCc1noc(=O)[nH]1)c1cc2oc(-c3ccc(F)cc3)c(C3=NOCCN3)c2cc1C1CC1
Not fulfilled

Strictly below 90 nM in EC50? CC1NC(c2c(-c3ccc(F)cc3)oc3cc(N(CCO)S(C)(=O)=O)c(C4CC4)cc23)=NO1 (stereo not drawn)
Fulfilled

Strictly below 90 nM in EC50? CS(=O)(=O)N(CCN1CCCC1)c1cc2oc(-c3ccc(F)cc3)c(C3=NOCCN3)c2cc1C1CC1
Not fulfilled

Strictly below 90 nM in EC50? CC(C)CCN(c1cc2oc(-c3ccc(F)cc3)c(C3=NOCN3)c2cc1C1CC1)S(C)(=O)=O
Fulfilled

Strictly below 90 nM in EC50? CS(=O)(=O)N(CCCC(N)=O)c1cc2oc(-c3ccc(F)cc3)c(-c3ncc[nH]3)c2cc1C1CC1
Fulfilled

Strictly below 90 nM in EC50? CCOC(=O)CN(c1cc2oc(-c3ccc(F)cc3)c(-c3ncc[nH]3)c2cc1C1CC1)S(C)(=O)=O
Not fulfilled

Strictly below 90 nM in EC50? CN(C)CCCN(c1cc2oc(-c3ccc(F)cc3)c(-c3ncc[nH]3)c2cc1C1CC1)S(C)(=O)=O
Fulfilled

Every entry's value here was drawn from patent US20160355530A1.
